Measured values drawn from paper PMC10991935 for this set.

Each entry below lists one item and its recorded Kd value.
- Test system: PsPIWI-RE (Pseudomonas stutzeri DSM 4166)
- Assay Summary: fluorescence polarization
- Measurement Parameters: 5' phosphate; FP: 20 mM Tris-HCl pH 7.5, 250 mM NaCl, 5 mM MgCl2, 5 nM oligo, 37 C, 30 min; EMSA: 20 mM Tris-HCl pH 8.0, 150 mM NaCl, 2 mM DTT, 5 mM MgCl2, 1 uM oligo, 1-3 uM
Respond with the bare value in nM.

UGAGGUAGUAGGUUGUAUAGU [5'P-RNA (5'U) 21-nt guide]	64.4

Now take the following sequence into account.
Query: Can you look up the measured Kd of TGAGGTAGTAGGTTGTATAGT [5'P-DNA (5'T) 21-nt guide] for me?
Reply: 24.6
